Reference source for all entries: PubChem BioAssay (EPA / NIEHS)

# Read-out: Epidermal growth factor receptor (EGFR), EGFR (gene 1956)
# protocol: BSK_hDFCGF_EGFR: BioMAP Diversity Plus: hDFCGF Assay for Epidermal growth factor receptor (EGFR) Biomarker Activity (AID 2283057)
# experimental.setup: primary human foreskin fibroblasts; actives raise or lower the signal
Activity calls are given as the source filed them. The calls were made as follows: active = hit-call score of the fitted dose curve at least 0.9, where 1 is the maximum; inactive = score below 0.9.
Use one of these outcomes when replying: true for active, false for inactive

Completed entries (count: 3):
compound	label
C[C@]12CC[C@@H]3c4ccc(O)cc4CC[C@H]3[C@@H]1C[C@@H](O)[C@@H]2O	false
Oc1cc2ccccc2cc1O	false
OCC(F)(F)C(F)(F)C(F)(F)C(F)(F)C(F)(F)C(F)(F)C(F)(F)C(F)(F)C(F)(F)C(F)(F)C(F)(F)F	false

Query: Status in this test for `Oc1ccc(Cc2ccccc2O)cc1` ?
Result: false

Query: What do we get for `CC(=O)Nc1ccc(O)cc1` ?
Result: false

Query: Check `CCCCCCCCCCCCCCC` too.
Result: false

Query: `C=CC(=C)CC/C=C(\C)CCC=C(C)C` , same question.
Result: false

Query: Here is the next compound: `CC[N+](CC)(CC)Cc1ccccc1`
Result: false

Query: Lookup `O=C(NCc1ncc(C(F)(F)F)cc1Cl)c1c(Cl)cccc1Cl`
Result: false

Query: Subsequent entry: `N=C(N)c1ccc(OCCCCCOc2ccc(C(=N)N)cc2)cc1`
Result: true

###

# Read-out: E-selectin (Homo sapiens)
# protocol: BSK_SAg_Eselectin: BioMAP Diversity Plus: SAg Assay for Eselectin Biomarker Activity (AID 2283091)
# experimental.setup: primary human HUVEC with PBMC; actives raise or lower the signal
The source made the active and inactive calls. Rule for the calls: active = hit-call score of the fitted dose curve at least 0.9, where 1 is the maximum; inactive = score below 0.9.
The categories you may choose from are class 1 (active), class 0 (inactive)

molecule	label
CN(Cc1cnc2nc(N)nc(N)c2n1)c1ccc(C(=O)N[C@@H](CCC(=O)O)C(=O)O)cc1	class 0
O=C(NCc1ncc(C(F)(F)F)cc1Cl)c1c(Cl)cccc1Cl	class 0
COc1cc(OC)nc(NC(=O)NS(=O)(=O)Nc2ccccc2C(=O)N(C)C)n1	class 0
COC1=CC(=O)C[C@@H](C)[C@]12Oc1c(Cl)c(OC)cc(OC)c1C2=O	class 0
CCCCCCCCCCCCCCCCCC[N+](C)(C)Cc1ccccc1	class 1
OCC(F)(F)C(F)(F)C(F)(F)C(F)(F)C(F)(F)C(F)(F)C(F)(F)C(F)(F)C(F)(F)C(F)(F)C(F)(F)F	class 0

Query: Tell me the recorded outcome of this test for CCCCC(CC)C(=O)OCCOCCOCCOCCOC(=O)C(CC)CCCC (stereo not drawn) .
Result: class 0

Query: What do we get for `CS(=O)(=O)c1ccc([C@@H](CC2CCCC2)C(=O)Nc2cnccn2)cc1Cl` ?
Result: class 0

###

# protocol: BSK_3C_Proliferation: Cell Proliferation Assessment in the BioMAP Diversity Plus: 3C Assay (AID 2283006);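 as to AC50: potency may reflect either rise or fall in cell number versus DMSO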
# experimental.setup: primary human endothelial cells (HUVEC)
Calls of active or inactive are those of the source. The calls were made as follows: active = hit-call score of the fitted dose curve at least 0.9, where 1 is the maximum; inactive = score below 0.9.
property: AC50

Worked cases, answers included:
compound	AC50
COc1cccc(O)c1	inactive
OCC(CO)(CBr)CBr	inactive
O=S(=O)(O)C(F)(F)C(F)(F)C(F)(F)C(F)(F)C(F)(F)C(F)(F)C(F)(F)C(F)(F)C(F)(F)C(F)(F)F	13.3 µM (active)
O=C(O)CCC(F)(F)C(F)(F)C(F)(F)C(F)(F)C(F)(F)F	inactive

Query: Entry under review: `C=CC(=C)CC/C=C(\C)CCC=C(C)C` . Reported AC50?
Result: inactive

Query: Try this compound next: `CCOC(=O)CN[C@@H](C(=O)N1CC[C@H]1C(=O)NCc1ccc(/C(N)=N/O)cc1)C1CCCCC1`
Result: inactive

Query: Note, next up: `CC(=O)Nc1ccc(O)cc1`
Result: inactive

###

# Read-out: Interleukin-8 (IL8), CXCL8 (gene 3576)
# protocol: BSK_CASM3C_IL8: BioMAP Diversity Plus: CASM3C Assay for Interleukin-8 (IL8) Biomarker Activity (AID 2283042);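 also: IL-8 protein level quantified by ELISA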
# experimental.setup: primary human coronary artery smooth muscle cells; actives raise or lower the signal
The source made the active and inactive calls. Rule for the calls: active = hit-call score of the fitted dose curve at least 0.9, where 1 is the maximum; inactive = score below 0.9.
Field 'call' accepts 1 (yes) (active), 0 (no) (inactive)

Sample answers from the record:
compound	label
O=C(NO)c1ccccc1	0 (no)
Cc1ccc(N=Nc2c(O)ccc3ccccc23)c(C)c1	0 (no)
C=COC(=O)C(C)(C)CCCCCC	0 (no)
O=P(O)(O)CCC(F)(F)C(F)(F)C(F)(F)C(F)(F)C(F)(F)C(F)(F)F	0 (no)

Please examine the following record next.
Query: What did this assay record as the result for `Oc1cc2ccccc2cc1O` ?
Result: 0 (no)

###

# target.or.test.system: Cellular tumor antigen p53 (Homo sapiens) (UniProt P04637)
# Sequence (P04637 whole entry, looked up): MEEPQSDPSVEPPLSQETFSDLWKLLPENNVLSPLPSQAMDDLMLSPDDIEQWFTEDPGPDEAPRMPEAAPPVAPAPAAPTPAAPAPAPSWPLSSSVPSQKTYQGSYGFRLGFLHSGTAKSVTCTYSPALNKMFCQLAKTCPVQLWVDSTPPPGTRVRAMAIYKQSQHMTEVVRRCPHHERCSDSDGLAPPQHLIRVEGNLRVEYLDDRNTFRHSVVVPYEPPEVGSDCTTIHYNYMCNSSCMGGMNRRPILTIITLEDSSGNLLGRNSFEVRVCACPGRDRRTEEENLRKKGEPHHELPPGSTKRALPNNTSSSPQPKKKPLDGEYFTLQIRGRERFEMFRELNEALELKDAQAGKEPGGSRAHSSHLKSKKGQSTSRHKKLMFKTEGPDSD
# protocol: TOX21_p53_BLA_p2_ratio: Tox21 HCT-116 p53 Agonism Beta-lactamase Assay, Ratio, Phase 2 (AID 2283592)
Inconclusive results are not listed. Calls of active or inactive are those of the source. The calls were made as follows: active = hit-call score of the fitted dose curve at least 0.9, where 1 is the maximum; inconclusive = response in the unintended direction; inactive = score below 0.9.
In this exercise, the only acceptable responses are Yes (active), No (inactive)

compound	label
O=C1OC(=O)c2cc(-c3ccc4c(c3)C(=O)OC4=O)ccc21	No
CCC1CO1 (centres undefined)	No
Clc1ccc(Nc2nnc(Cc3ccncc3)c3ccccc23)cc1	No

Now let's try a different one.
Query: Recorded test outcome, item `C=CC(=O)OCC(CO)(COCC(COC(=O)C=C)(COC(=O)C=C)COC(=O)C=C)COC(=O)C=C`
Result: Yes

###

# Read-out: Macrophage colony-stimulating factor (MCSF), CSF1 (gene 1435)
# protocol: BSK_CASM3C_MCSF: BioMAP Diversity Plus: CASM3C Assay for Macrophage colony-stimulating factor (MCSF) Biomarker Activity (AID 2283044);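 also: M-CSF protein amount quantified by ELISA after 24 h exposure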
# experimental.setup: primary human coronary artery smooth muscle cells; actives raise or lower the signal
Active and inactive are the calls of the source. Rule for the calls: active = hit-call score of the fitted dose curve at least 0.9, where 1 is the maximum; inactive = score below 0.9.
property: outcome

COC1=CC(=O)C[C@@H](C)[C@]12Oc1c(Cl)c(OC)cc(OC)c1C2=O inactive
CN(Cc1cnc2nc(N)nc(N)c2n1)c1ccc(C(=O)N[C@@H](CCC(=O)O)C(=O)O)cc1 inactive
O=C(c1ccccc1)c1ccccc1 inactive

###

# protocol: ATG_DR4_LXR_CIS: Attagene CIS-FACTORIAL HepG2 Assay for human Liver X Receptor (LXR), DR4 submotif (AID 2282929)
# experimental.setup: HepG2 Attagene DR4 cis-reporter, mRNA transcription; actives raise or lower the signal
The source made the active and inactive calls. Rule for the calls: active = hit-call score of the fitted dose curve at least 0.9, where 1 is the maximum; inactive = score below 0.9.
property: AC50

Consider the reported AC50 for these molecules:
Nc1cc(Cl)c(-c2cc(Cl)c(N)cc2Cl)cc1Cl 2.65 µM (active)
C/C=C/C(=O)C1=C(C)CCCC1(C)C 24.6 µM (active)
CN(C)CCOC(c1ccccc1)c1ccccc1 150 µM (active)
Cn1sccc1=O 74.2 µM (active)

Proceed to the following item.
Query: # lookup: AC50 of `CCOC(=O)c1nc(C(Cl)(Cl)Cl)n(-c2ccc(Cl)cc2Cl)n1`
Result: 48.5 µM (active)

###

# target.or.test.system: Transcriptional activator Myb (Homo sapiens)
# protocol: ATG_Myb_CIS: Attagene CIS-FACTORIAL HepG2 Assay for human Myeloblastosis (Myb) Proto-Oncogene Transcription Factor (AID 2282986)
# experimental.setup: HepG2 Attagene CIS-FACTORIAL Myb reporter transcription; actives raise or lower the signal
Calls of active or inactive are those of the source. The calls were made as follows: active = hit-call score of the fitted dose curve at least 0.9, where 1 is the maximum; inactive = score below 0.9.
Please state which outcome applies, choosing from active, inactive

Worked examples, 4 compounds total:
compound	label
NCCN	inactive
CN(C)CCOC(c1ccccc1)c1ccccc1	inactive
c1ccc(CNc2ncnc3c2ncn3C2CCCCO2)cc1 (configuration not stated)	inactive
CC1COCc2cc3c(cc21)C(C)(C)C(C)C3(C)C (configuration not stated)	active

Query: Hey, what did the test say about `CCN(CCC#N)c1ccccc1` ?
Result: inactive

Query: Try the compound FC(F)(F)C1(F)C(F)(F)C(F)(F)C(F)(F)C(F)(C(F)(F)F)C1(F)F (configuration not stated)
Result: inactive

Query: Do the same for `Brc1ccc(Oc2ccc(Br)cc2Br)cc1` please
Result: inactive

###

# protocol: TOX21_p53_BLA_p5_viability: Viability Assessment in the Tox21 HCT-116 p53 Agonism Beta-lactamase Assay, Phase 5 (AID 2283600)
Records with an inconclusive call do not appear. Calls of active or inactive are those of the source. Rule for the calls: active = hit-call score of the fitted dose curve at least 0.9, where 1 is the maximum; inconclusive = response in the unintended direction; inactive = score below 0.9.
property: AC50

Take a look at these entries with their results.
molecule	AC50
CCCCCCCCCCCC(=O)NCCCN(C)C	65.7 µM (active)
CCCCCCCCC1CCC(=O)O1 (stereo not given)	inactive
Cc1ccc(C)c(S(=O)(=O)O)c1	inactive
CN(C)c1ccc(C(=C2C=CC(=[N+](C)C)C=C2)c2ccccc2)cc1	inactive
Cc1cc(=O)oc2cc(O)ccc12	inactive

Query: Recorded AC50 for `O=C(c1cc(O)c(O)c(O)c1)c1ccc(O)c(O)c1O` , please?
Result: inactive

Query: Another molecule to check: `Cc1cc(C(C)(C)C)c(O)c(C(C)(C)C)c1`
Result: inactive
